- experiment-notes: Study 204953 Part 1A: single doses 50-250 mg API PiB with RTV, healthy subjects
- Type: in vivo, human
- condition-set: human, plasma, oral, single 50 mg API PiB, fasted, with ritonavir (2 days predosing), geometric mean (95% CI)
property-name: Cmax
Respond with the figure and its unit, in that order.

For the molecule shown here, `CC(C)C1=C2[C@H]3CC[C@@H]4[C@@]5(C)CC[C@H](OC(=O)CC(C)(C)C(=O)O)C(C)(C)[C@@H]5CC[C@@]4(C)[C@]3(C)CC[C@@]2([C@@H](O)CN(CCN(C)C)Cc2ccc(Cl)cc2)CC1=O` , give the reported Cmax.
15.7 ng/mL

----------
- experiment-notes: Study HMI116787: single ascending dose, food effect and RTV boosting, SDD PiB, healthy subjects
- Assay type: in vivo, human
- condition-set: human, plasma, oral; single 10 mg SDD PiB, fasted, with ritonavir 100 mg QD (Day 10 of 12), Study HMI116787; geometric mean (95% CI)
property-name: Cmax (ng/mL)
Numbers only, in ng/mL.

For the compound shown here, CC(C)C1=C2[C@H]3CC[C@@H]4[C@@]5(C)CC[C@H](OC(=O)CC(C)(C)C(=O)O)C(C)(C)[C@@H]5CC[C@@]4(C)[C@]3(C)CC[C@@]2([C@@H](O)CN(CCN(C)C)Cc2ccc(Cl)cc2)CC1=O [GSK2838232] , give the reported Cmax.
9.1

----------
- experiment-notes: Study 204953 Part 2: repeat dosing for 11 days with RTV QD or 200 mg BID unboosted
- Format: in vivo, human
- condition-set: human, plasma, oral, Study Day 11, 20 mg QD + RTV (PiB), τ = 24 hours, Study 204953; median (range); read-out: Cτ
property-name: concentration at 24 h (ng/mL)
Numbers only, in ng/mL.

For the compound shown here, CC(C)C1=C2[C@H]3CC[C@@H]4[C@@]5(C)CC[C@H](OC(=O)CC(C)(C)C(=O)O)C(C)(C)[C@@H]5CC[C@@]4(C)[C@]3(C)CC[C@@]2([C@@H](O)CN(CCN(C)C)Cc2ccc(Cl)cc2)CC1=O [GSK2838232] , give the reported concentration at 24 h.
17

----------
- experiment-notes: Study 204953 Part 2: repeat dosing for 11 days with RTV QD or 200 mg BID unboosted
- Assay type: in vivo, human
- condition-set: human, plasma, oral, 200 mg, Study day 1, 200 mg QD + RTV (capsules), τ = 24 hours, Study 204953; geometric mean (95% CI); read-out: AUC(0‐τ)
property-name: AUC (ng·h/mL)
Numbers only, in ng·h/mL.

For the molecule shown here, `CC(C)C1=C2[C@H]3CC[C@@H]4[C@@]5(C)CC[C@H](OC(=O)CC(C)(C)C(=O)O)C(C)(C)[C@@H]5CC[C@@]4(C)[C@]3(C)CC[C@@]2([C@@H](O)CN(CCN(C)C)Cc2ccc(Cl)cc2)CC1=O` , give the reported AUC.
1060
